Entries and their measured growth inhibition follow.
# Experiment description: NCI Yeast Anticancer Drug Screen. Data for the cln2 rad14 strain (AID 165);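 also: 0% = growth equal to vehicle treated cultures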
# Test conditions: S. cerevisiae cln2 rad14 strain, at 50.0 µM, active compounds read high
This is part of a sample that, as a whole, favours compounds with a hit. Of some 79,000 tested, about 15% had one in any assay.
Readout label: growth inhibition (%)

| Compound | Experimental result |
| --- | --- |
| O=C(Nc1ccc(Br)cc1C(F)(F)F)C(F)(F)F | -28.9 |
| O=C(Nc1cccc([N+](=O)[O-])c1)Oc1ccc(-c2ccccc2)cc1 | -3.75 |
| CC[P+](C)(Cc1ccccc1)c1ccccc1 (configuration not stated) | -3.25 |
| Cc1ccccc1-c1nc2c([nH]1)c(=O)n(C)c(=O)n2C | -32.3 |
| CC(=O)C(C)CCOC1(C)OCCC1C (configuration not stated) | -22.2 |
| O=C(O)C(Cc1c[nH]c2ccccc12)Nc1ccc([N+](=O)[O-])cc1[N+](=O)[O-] (configuration not stated) | -10.7 |
| CCc1cc(Cl)c(O)c(Cl)c1 | -0.15 |
| O=C(O)c1ccc(Cl)cc1[N+](=O)[O-] | 19.9 |
| CN(Cc1nc2c(N)nc(N)nc2nc1N)c1ccc(C(=O)NC(CCC(=O)O)C(=O)O)cc1 (configuration not stated) | -7.4 |
| CCc1n[nH]c(=O)n1/N=C/c1ccc(C)cc1 | -0.3 |
| BrCC(Br)c1ccc(C(Br)CBr)cc1 (configuration not stated) | 14.7 |
| Cc1cc(N(CCC#N)CCC#N)ccc1/C=C1N=C(/C=C\c2ccccc2)N(c2ccc(C(=O)O)cc2)C\1=O | -6.3 |

meta.source: PubChem BioAssay (NCI)
